# TESTED_SYSTEM: human GCG receptor (human, UniProt P47871 26-477)
# Sequence (P47871 26-477): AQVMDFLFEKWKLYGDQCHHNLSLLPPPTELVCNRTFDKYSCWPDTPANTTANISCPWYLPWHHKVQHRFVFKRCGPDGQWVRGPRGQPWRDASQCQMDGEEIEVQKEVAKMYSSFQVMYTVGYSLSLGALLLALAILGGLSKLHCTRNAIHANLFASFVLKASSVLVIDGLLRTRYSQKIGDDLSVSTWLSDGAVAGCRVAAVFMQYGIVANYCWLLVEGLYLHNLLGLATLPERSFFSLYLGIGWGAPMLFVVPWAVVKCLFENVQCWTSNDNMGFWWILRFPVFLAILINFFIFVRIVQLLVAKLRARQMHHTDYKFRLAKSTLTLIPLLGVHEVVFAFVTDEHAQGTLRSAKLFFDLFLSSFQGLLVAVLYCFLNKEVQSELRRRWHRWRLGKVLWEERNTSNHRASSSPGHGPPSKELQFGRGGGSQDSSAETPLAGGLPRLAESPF
# EXPERIMENT_DESCRIPTION: cell-based or functional assay
Positions of bridges follow the written chain, without caps; N, C: chain ends. Non-standard residues stand in square brackets, D forms with d. No end group written: not given here. Aib = CC(C)(N)C(=O)O
# In vitro Activity Compared to Native Peptide (%) vs. Glucagon per entry
Reply with just the number (in %).

Examples from the recorded data:
BINDER: H[Aib]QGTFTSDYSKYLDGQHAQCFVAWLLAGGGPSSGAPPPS [triple agonist of SEQ ID NO: 39]
MEASURED_VALUE: 0.53
//
BINDER: H[Aib]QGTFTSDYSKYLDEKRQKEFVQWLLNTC (bridge 16-20) [triple agonist of SEQ ID NO: 51]
MEASURED_VALUE: 2

Continue with the next binder.
[in] Which In vitro Activity Compared to Native Peptide (%) vs. Glucagon value belongs to Y[Aib]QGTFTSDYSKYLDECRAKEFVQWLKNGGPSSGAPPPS (bridge 16-20) [triple agonist of SEQ ID NO: 24] ?
[out] 9.3
